meta.source: paper PMC8519022

# EXPERIMENTAL_SYSTEM: Bos taurus trypsin 1 (T1) (Bos taurus)
# EXPERIMENTAL_PROTOCOL: Trypsin inhibition, Ki by Lineweaver-Burk analysis;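 further: trypsin activity followed by spectrophotometric hydrolysis kinetics of the chromogenic substrate BAPNA in Tris buffer, Ki obtained from double-reciprocal Lineweaver–Burk plots at several substrate concentrations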
# MEASUREMENT_CONTEXT: K i [nM] (open)
*1 amine or outer side, *2 acyl side, *3 side chain or, on linkers, in order; H or OH if unused. Where a SMILES comes first, the peptide text is derived from it. Bridges are numbered along the chain shown (N, C = ends). Triazole bridges read from a SMILES are 1,4-linked. [ ]: non-standard residue; d: D form. X1 = Cc1sc(C(=O)[C@@H]2CCCN2[*:2])cc1C1=C(c2cc(C(=O)[*:1])sc2C)CCC1; Orn(N3) = [N-]=[N+]=NCCC[C@H](N)C(=O)O; hCys = N[C@@H](CCS)C(=O)O; Pra = C#CC[C@H](N)C(=O)O
Could you please classify the records by Ki using these ranges: lower segment: < 60 nM; middle segment: ≥ 60 nM and < 400 nM; upper segment: ≥ 400 nM

These recorded examples may help you get a feel for the data.
CC[C@H](C)[C@@H]1NC(=O)[C@@H]2CCCN2C(=O)[C@@H]2CCCN2C(=O)[C@H]([C@@H](C)CC)NC(=O)[C@H](CO)NC(=O)[C@H](CCCCN)NC(=O)[C@H]([C@@H](C)O)NC(=O)[C@@H]2CSSC[C@H](NC1=O)C(=O)N[C@@H](Cc1ccccc1)C(=O)N[C@@H](CC(C)C)C(=O)N1CCC[C@H]1C(=O)c1cc(c(C)s1)C1=C(CCC1)c1cc(sc1C)C(=O)N[C@@H](C(C)C)C(=O)N[C@@H](CCCNC(=N)N)C(=O)N2 [Peptide S10n] (VRCTKSIPPICFL; disulfide 3-11; linker N-C via X1) :: lower segment
CC[C@H](C)[C@@H]1NC(=O)[C@@H]2CCCN2C(=O)[C@@H]2CCCN2C(=O)[C@H]([C@@H](C)CC)NC(=O)[C@H](CO)NC(=O)[C@H](CCCCN)NC(=O)[C@H]([C@@H](C)O)NC(=O)[C@@H]2Cc3cn(nn3)CCC[C@H](NC1=O)C(=O)N[C@@H](CCCNC(=N)N)C(=O)N[C@@H](CC(C)C)C(=O)N1CCC[C@H]1C(=O)c1cc(c(C)s1)C1=C(CCC1)c1cc(sc1C)C(=O)N[C@@H](C(C)C)C(=O)N[C@@H](Cc1ccccc1)C(=O)N2 [Peptide S12i] (VF[Pra]TKSIPPI[Orn(N3)]RL; triazole 3-11; linker N-C via X1) :: upper segment

Turning now to a further compound:
Exam item: assign CC[C@H](C)[C@@H]1NC(=O)[C@@H]2CCCN2C(=O)[C@@H]2CCCN2C(=O)[C@H]([C@@H](C)CC)NC(=O)[C@H](CO)NC(=O)[C@H](CCCCN)NC(=O)[C@H]([C@@H](C)O)NC(=O)[C@@H]2CSSCC[C@H](NC1=O)C(=O)N[C@@H](Cc1ccccc1)C(=O)N1CCC[C@H]1C(=O)c1cc(c(C)s1)C1=C(CCC1)c1cc(sc1C)C(=O)N[C@@H](CCCNC(=N)N)C(=O)N2 [Peptide S5n] (RCTKSIPPI[hCys]F; disulfide 2-10; linker N-C via X1) to the correct category. middle segment

====

# EXPERIMENTAL_SYSTEM: trypsin (Bos taurus, UniProt P00760)
# Sequence (P00760 24-246): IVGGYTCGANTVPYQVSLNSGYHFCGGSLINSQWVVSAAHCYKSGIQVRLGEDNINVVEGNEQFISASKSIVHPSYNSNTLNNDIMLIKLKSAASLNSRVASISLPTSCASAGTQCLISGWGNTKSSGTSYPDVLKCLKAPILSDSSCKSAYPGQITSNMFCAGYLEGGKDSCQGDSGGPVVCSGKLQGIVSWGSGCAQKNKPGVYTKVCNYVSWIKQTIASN
# MEASUREMENT_CONTEXT: pH 8.2
*1 amine or outer side, *2 acyl side, *3 side chain or, on linkers, in order; H or OH if unused. Where a SMILES comes first, the peptide text is derived from it. Bridges are numbered along the chain shown (N, C = ends). Triazole bridges read from a SMILES are 1,4-linked. [ ]: non-standard residue; d: D form. X1 = Cc1sc(C(=O)[C@@H]2CCCN2[*:2])cc1C1=C(c2cc(C(=O)[*:1])sc2C)CCC1; Orn(N3) = [N-]=[N+]=NCCC[C@H](N)C(=O)O; Pra = C#CC[C@H](N)C(=O)O
Field: k H [M^−1 s^−1] (closed). Provide a value for each of the compounds that follow.

Some compounds with known k H [M^−1 s^−1] (closed) results, for comparison:
CC[C@H](C)[C@@H]1NC(=O)[C@@H]2CCCN2C(=O)[C@@H]2CCCN2C(=O)[C@H]([C@@H](C)CC)NC(=O)[C@H](CO)NC(=O)[C@H](CCCCN)NC(=O)[C@H]([C@@H](C)O)NC(=O)[C@@H]2CSSC[C@H](NC1=O)C(=O)N[C@@H](Cc1ccccc1)C(=O)N1CCC[C@H]1C(=O)c1cc(c(C)s1)C1=C(CCC1)c1cc(sc1C)C(=O)N[C@@H](C(C)C)C(=O)N[C@@H](CCCNC(=N)N)C(=O)N2 [Peptide S8n] (VRCTKSIPPICF; disulfide 3-11; linker N-C via X1) :: 5.3±1.4×10^−4 M^−1 s^−1
CC[C@H](C)[C@@H]1NC(=O)[C@@H]2CCCN2C(=O)[C@@H]2CCCN2C(=O)[C@H]([C@@H](C)CC)NC(=O)[C@H](CO)NC(=O)[C@H](CCCCN)NC(=O)[C@H]([C@@H](C)O)NC(=O)[C@@H]2CSSC[C@H](NC1=O)C(=O)N[C@@H](Cc1ccccc1)C(=O)N[C@@H](CC(C)C)C(=O)N1CCC[C@H]1C(=O)c1cc(c(C)s1)C1=C(CCC1)c1cc(sc1C)C(=O)N[C@@H](C(C)C)C(=O)N[C@@H](CCCNC(=N)N)C(=O)N2 [Peptide S10n] (VRCTKSIPPICFL; disulfide 3-11; linker N-C via X1) :: 3.6±0.3×10^−3 M^−1 s^−1
CC[C@H](C)[C@@H]1NC(=O)[C@@H]2CCCN2C(=O)[C@@H]2CCCN2C(=O)[C@H]([C@@H](C)CC)NC(=O)[C@H](CO)NC(=O)[C@H](CCCCN)NC(=O)[C@H]([C@@H](C)O)NC(=O)[C@@H]2Cc3cn(nn3)CCC[C@H](NC1=O)C(=O)N[C@@H](CCCNC(=N)N)C(=O)N1CCC[C@H]1C(=O)c1cc(c(C)s1)C1=C(CCC1)c1cc(sc1C)C(=O)N[C@@H](Cc1ccccc1)C(=O)N2 [Peptide S7i] (F[Pra]TKSIPPI[Orn(N3)]R; triazole 2-10; linker N-C via X1) :: 5.5±1×10^−1 M^−1 s^−1

Next item in the queue.
Recorded k H [M^−1 s^−1] (closed) (compound CC[C@H](C)[C@@H]1NC(=O)[C@@H]2CCCN2C(=O)[C@@H]2CCCN2C(=O)[C@H]([C@@H](C)CC)NC(=O)[C@H](CO)NC(=O)[C@H](CCCCN)NC(=O)[C@H]([C@@H](C)O)NC(=O)[C@@H]2CSSC[C@H](NC1=O)C(=O)N[C@@H](Cc1ccccc1)C(=O)N[C@@H](CC(C)C)C(=O)N1CCC[C@H]1C(=O)c1cc(c(C)s1)C1=C(CCC1)c1cc(sc1C)C(=O)N[C@@H](CCCNC(=N)N)C(=O)N2 [Peptide S9n] (RCTKSIPPICFL; disulfide 2-10; linker N-C via X1) ): 1.3±0.1×10^−3 M^−1 s^−1

====

Field: k H (closed) /k H (open). Provide a value for each of the molecules that follow.
# EXPERIMENTAL_SYSTEM: trypsin (Bos taurus, UniProt P00760)
*1 amine or outer side, *2 acyl side, *3 side chain or, on linkers, in order; H or OH if unused. Where a SMILES comes first, the peptide text is derived from it. Bridges are numbered along the chain shown (N, C = ends). Triazole bridges read from a SMILES are 1,4-linked. [ ]: non-standard residue; d: D form. X1 = Cc1sc(C(=O)[C@@H]2CCCN2[*:2])cc1C1=C(c2cc(C(=O)[*:1])sc2C)CCC1; Orn(N3) = [N-]=[N+]=NCCC[C@H](N)C(=O)O; Pra = C#CC[C@H](N)C(=O)O
Give bare numbers.

CC[C@H](C)[C@@H]1NC(=O)[C@@H]2CCCN2C(=O)[C@@H]2CCCN2C(=O)[C@H]([C@@H](C)CC)NC(=O)[C@H](CO)NC(=O)[C@H](CCCCN)NC(=O)[C@H]([C@@H](C)O)NC(=O)[C@@H]2Cc3cn(nn3)CCC[C@H](NC1=O)C(=O)N[C@@H](CCCNC(=N)N)C(=O)N1CCC[C@H]1C(=O)c1cc(c(C)s1)C1=C(CCC1)c1cc(sc1C)C(=O)N[C@@H](Cc1ccccc1)C(=O)N2 [Peptide S7i] (F[Pra]TKSIPPI[Orn(N3)]R; triazole 2-10; linker N-C via X1) :: 73

Next item in the queue.
Recorded k H (closed) /k H (open) (molecule CC[C@H](C)[C@@H]1NC(=O)[C@@H]2CCCN2C(=O)[C@@H]2CCCN2C(=O)[C@H]([C@@H](C)CC)NC(=O)[C@H](CO)NC(=O)[C@H](CCCCN)NC(=O)[C@H]([C@@H](C)O)NC(=O)[C@@H]2CSSC[C@H](NC1=O)C(=O)N[C@@H](Cc1ccccc1)C(=O)N[C@@H](CC(C)C)C(=O)N1CCC[C@H]1C(=O)c1cc(c(C)s1)C1=C(CCC1)c1cc(sc1C)C(=O)N[C@@H](C(C)C)C(=O)N[C@@H](CCCNC(=N)N)C(=O)N2 [Peptide S10n] (VRCTKSIPPICFL; disulfide 3-11; linker N-C via X1) ): 15.7
